Data origin: patent US20240084003A1

assayed target: T1, murine CD22 protein (ACROBiosystems, SI2-M52Ha) (murine, UniProt P35329 22-708)
T1 construct: extracellular domain; also called murine CD22-ECD; murine CD22-ECD-His
T1 sequence (looked up): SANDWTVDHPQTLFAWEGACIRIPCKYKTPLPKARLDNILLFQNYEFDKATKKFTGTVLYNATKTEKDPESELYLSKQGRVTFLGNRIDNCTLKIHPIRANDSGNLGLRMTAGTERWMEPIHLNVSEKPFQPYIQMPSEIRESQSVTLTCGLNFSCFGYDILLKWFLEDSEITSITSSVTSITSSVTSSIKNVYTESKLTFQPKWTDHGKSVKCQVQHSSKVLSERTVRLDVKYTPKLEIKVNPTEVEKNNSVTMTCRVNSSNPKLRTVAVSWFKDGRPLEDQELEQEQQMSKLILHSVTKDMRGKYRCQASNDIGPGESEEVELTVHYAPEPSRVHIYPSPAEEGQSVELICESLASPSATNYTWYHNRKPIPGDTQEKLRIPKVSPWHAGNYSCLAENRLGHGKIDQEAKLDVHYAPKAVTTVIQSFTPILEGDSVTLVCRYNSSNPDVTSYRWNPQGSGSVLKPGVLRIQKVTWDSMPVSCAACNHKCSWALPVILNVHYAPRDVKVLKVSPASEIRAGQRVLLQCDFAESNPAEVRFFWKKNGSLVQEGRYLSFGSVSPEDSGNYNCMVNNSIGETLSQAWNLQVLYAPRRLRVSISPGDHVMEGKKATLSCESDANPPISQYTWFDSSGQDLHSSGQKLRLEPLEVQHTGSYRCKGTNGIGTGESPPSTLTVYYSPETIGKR
assay info: ELISA, coated murine CD22, 100 nM Ab
value type: OD450 (OD450)

# binder, reported measurement
rows = [
    ("F1.120.15 human-murine chimeric antibody (antibody, human IgG1, kappa, V domains shown, Chimeric, human IgG1 / kappa) VH: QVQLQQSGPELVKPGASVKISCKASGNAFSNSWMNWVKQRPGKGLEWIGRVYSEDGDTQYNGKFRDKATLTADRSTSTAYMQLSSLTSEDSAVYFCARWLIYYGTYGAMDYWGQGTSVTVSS VL: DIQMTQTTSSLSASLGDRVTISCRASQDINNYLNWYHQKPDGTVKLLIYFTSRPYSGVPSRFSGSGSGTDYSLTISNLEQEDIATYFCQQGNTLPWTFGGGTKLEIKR", 0.06),
]
